Numbers sourced from paper PMC5895880.

Tested system: mGluR5 (Rattus norvegicus)
Procedure text: Inositol phosphate (phosphatidylinositol) turnover in rat hippocampus slices
Format: cell-based
Assay context: rat hippocampus slices; in the presence of GET73 1 μM; read-out: EC50 of L-quisqualate, phosphatidylinositol turnover
pEC50: −log10 of the molar value.
Quantity: pEC50

> print(dat)
                                   compound  quantity  assay.value
1  N[C@@H](Cn1oc(=O)[nH]c1=O)C(=O)O [L-quisqualate]     pEC50         3.49

* * *

Tested system: mGluR5 (Rattus norvegicus, UniProt P31424)
Sequence (P31424 21-875 limits assumed): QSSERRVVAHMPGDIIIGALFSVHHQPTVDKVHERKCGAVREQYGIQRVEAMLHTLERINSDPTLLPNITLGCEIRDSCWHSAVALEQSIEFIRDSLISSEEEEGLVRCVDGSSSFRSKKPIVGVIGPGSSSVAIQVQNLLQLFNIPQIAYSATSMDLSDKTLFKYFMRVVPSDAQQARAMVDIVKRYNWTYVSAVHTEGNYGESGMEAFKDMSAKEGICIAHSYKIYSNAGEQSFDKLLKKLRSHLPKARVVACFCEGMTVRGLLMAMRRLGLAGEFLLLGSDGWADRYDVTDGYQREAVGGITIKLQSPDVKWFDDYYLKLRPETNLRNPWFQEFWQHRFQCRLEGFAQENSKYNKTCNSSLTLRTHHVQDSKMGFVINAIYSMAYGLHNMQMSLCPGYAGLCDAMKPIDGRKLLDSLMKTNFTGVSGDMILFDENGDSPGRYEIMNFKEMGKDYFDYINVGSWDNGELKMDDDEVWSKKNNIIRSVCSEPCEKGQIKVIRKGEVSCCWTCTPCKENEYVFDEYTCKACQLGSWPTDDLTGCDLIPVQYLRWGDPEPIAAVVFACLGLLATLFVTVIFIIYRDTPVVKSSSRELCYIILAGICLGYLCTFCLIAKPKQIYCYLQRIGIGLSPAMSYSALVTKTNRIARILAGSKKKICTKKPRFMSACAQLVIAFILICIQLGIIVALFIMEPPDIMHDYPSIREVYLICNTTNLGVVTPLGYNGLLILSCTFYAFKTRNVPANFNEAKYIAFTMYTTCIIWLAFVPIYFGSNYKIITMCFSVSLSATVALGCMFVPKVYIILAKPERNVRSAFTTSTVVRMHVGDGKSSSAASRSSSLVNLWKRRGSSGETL
Procedure text: pCREB (Ser133) levels in primary cultures of rat cortical neurons
Format: cell-based
Assay context: rat cerebral cortex neurons; in the presence of GET73 10 nM; read-out: EC50 of L-quisqualate, pCREB levels
Quantity: EC50 (nM)

> print(dat)
                                   compound  scale.unit  assay.value
1  N[C@@H](Cn1oc(=O)[nH]c1=O)C(=O)O [L-quisqualate]          nM          8.5

* * *

Tested system: mGluR5 (Rattus norvegicus)
Procedure text: Calcium mobilization (intracellular calcium levels) in primary cultures of rat cortical astrocytes
Format: cell-based
Assay context: GET73 0 (absence), read-out: EC50 of L-quisqualate, intracellular calcium levels
Quantity: EC50

> print(dat)
                                   compound  quantity  assay.value
1  N[C@@H](Cn1oc(=O)[nH]c1=O)C(=O)O [L-quisqualate]      EC50       3.1 nM
